Hey, just so you know, these numbers are from patent US20160185837A1.

Assay system: T1, rat GIP receptor (rat, UniProt P43219 19-455)
T1 sequence (looked up): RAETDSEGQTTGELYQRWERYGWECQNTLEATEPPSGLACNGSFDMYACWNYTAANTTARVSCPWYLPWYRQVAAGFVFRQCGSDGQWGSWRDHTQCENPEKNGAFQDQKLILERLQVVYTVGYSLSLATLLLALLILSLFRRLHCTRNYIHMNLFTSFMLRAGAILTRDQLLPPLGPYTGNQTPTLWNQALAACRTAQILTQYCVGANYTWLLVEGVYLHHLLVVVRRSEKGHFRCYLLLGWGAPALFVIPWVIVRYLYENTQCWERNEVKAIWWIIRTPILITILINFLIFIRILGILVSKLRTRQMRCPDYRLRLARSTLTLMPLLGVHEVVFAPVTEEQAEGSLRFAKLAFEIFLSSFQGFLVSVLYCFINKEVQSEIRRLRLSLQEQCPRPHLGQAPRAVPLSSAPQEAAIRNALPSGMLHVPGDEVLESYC
Test method notes: cell-based or functional assay
# if measured cAMP EC50 < 0.1 nM: met  # else: not met

Example results:
Problem: Does the reported cAMP EC50 of IP324 (Fc fusion) YSEGTFTSDYSKLLEEEAVRLFIEWLVKGPGGGGGSGGGGSGGGGSGGGGSGGGGSGGGGSGGGGSA stay below 0.1 nM?
Solution: not met

Problem: Does the reported cAMP EC50 of IP371 (Fc fusion) YSEGMHTSDLSKLLEEEAVRLFIEWLLAGGGGGGGSGGGGSGGGGSGGGGSACPPC stay below 0.1 nM?
Solution: not met

Others:
Problem: Does the reported cAMP EC50 of IP400 (Fc fusion) YSEGTHTSDLSKLLEEEAVRLFIEWLLAGGGGGGSGGGGSGGGGSGGGGSATHTCPPC stay below 0.1 nM?
Solution: met

Problem: Does the reported cAMP EC50 of IP358 (Fc fusion) YSEGTFTSDFSKLLEEEAVRLFIEWLLAGGGGGGSGGGGSGGGGSGGGGSATHTCPPC stay below 0.1 nM?
Solution: met

Problem: Does the reported cAMP EC50 of IP257 (Fc fusion) SEGTFTSDYSKLLEEEAVRLFIEWLVKGPGGGGGSGGGGSGGGGSGGGGSATHTCPPCPAPEF stay below 0.1 nM?
Solution: not met

Problem: Does the reported cAMP EC50 of IP127 (Fc fusion) YSEGTFTSDVSSYLEEEAVREFIEWLLAGGAAAGGSGSTASSGSGSATGGGGAATHTCPPCPAPEF stay below 0.1 nM?
Solution: not met

Problem: Does the reported cAMP EC50 of IP274 (Fc fusion) YSEGTFTSDYSKLLEKEAVRLFIEWLLKGPGGGGGSGGGGSGGGGSGGGGSATHTCPPC stay below 0.1 nM?
Solution: met

Problem: Does the reported cAMP EC50 of IP278 (Fc fusion) YSEGTFTSDYSKLLEEEAVRLFIEWLVKGPPSSGAPPPSGGGGGSGGGGSGGGGSGGGGSATHTCPPC stay below 0.1 nM?
Solution: not met

Problem: Does the reported cAMP EC50 of IP300 (Fc fusion) YSEGTFTSDYSKLLEEEAVRLFIEWLLAGAPPGGGGGGGGGGGGGGGGGGGGGACPPC stay below 0.1 nM?
Solution: met

Problem: Does the reported cAMP EC50 of IP267 (Fc fusion) YSEGTFTSDYSKLLEEEHVRLFIEWLVKGPGGGGGSGGGGSGGGGSGGGGSATHTCPPC stay below 0.1 nM?
Solution: not met

Problem: Does the reported cAMP EC50 of IP362 (Fc fusion) YSEGTFTSDYMMLKEEEAVRLFIEWLLAGGGGGGSGGGGSGGGGSGGGGSATHTCPPC stay below 0.1 nM?
Solution: met
